Recorded values, source PubChem BioAssay (NCI).

- System: OVCAR-5 ovarian
- Protocol Details: NCI tumour cell line growth inhibition, 48 h
Entries and their TGI values follow.

| Compound | Assay Target | Experimental Value |
| --- | --- | --- |
| O=C(O)CNC(=O)c1ccc(-c2ccccc2)cc1 | OVCAR-5 ovarian | > 100 µM |
| Cc1cc(=O)n(-c2ccccc2C)c(C)n1 | OVCAR-5 ovarian | > 100 µM |
| COc1ccc2cc(C(=O)/C=C/c3ccc(Cl)cc3Cl)ccc2c1 | OVCAR-5 ovarian | > 100 µM |
| C(=C\c1cccs1)/c1cccc(/C=C/c2cccs2)n1 | OVCAR-5 ovarian | > 100 µM |
| CCCCCCCCCCCCCCCCCCOc1ccccc1CC(=O)OCC[N+]1(C)CCCCC1 | OVCAR-5 ovarian | 7.49 µM |

Recall and state the measured TGI for `N#Cc1c(N)nc(-c2ccc(Cl)cc2)c2c1-c1ccccc1S(=O)(=O)CC2` .
> 100 µM

Answer with the recorded TGI of COC(=O)C(=O)C(C(=O)C(=O)Nc1ccc(F)cc1)c1nc2ccc([N+](=O)[O-])cc2[nH]c1=O (stereo not given) only.
> 100 µM

Report TGI, nothing else, for this compound: `COc1cc(O)c2c(=O)cc(-c3ccc(O)cc3O)oc2c1CC=C(C)C`
> 100 µM

Supply recorded TGI for `COc1cnc2c(c1)C(=O)c1c-2n(CCCn2ccnc2)c(=O)c2cc(F)ccc12` here.
0.789 µM

Recall and state the measured TGI for `Nc1ccnc(=O)[nH]1` .
> 100 µM

Kindly indicate its recorded TGI. Item: `CN(C)CC/C(=N\Nc1ccc([N+](=O)[O-])cc1)c1ccccc1`
28.2 µM

Please give the documented TGI of Cc1cccc(C)c1NC(=O)C(C#N)C1=C(Cl)C(=O)c2ccccc2C1=O (stereo not given)
37.4 µM
